Value source: ChEMBL document CHEMBL1156084

SYSTEM NAME: P2X purinoceptor 7 (Homo sapiens) (UniProt Q99572)
Sequence (Q99572 whole entry): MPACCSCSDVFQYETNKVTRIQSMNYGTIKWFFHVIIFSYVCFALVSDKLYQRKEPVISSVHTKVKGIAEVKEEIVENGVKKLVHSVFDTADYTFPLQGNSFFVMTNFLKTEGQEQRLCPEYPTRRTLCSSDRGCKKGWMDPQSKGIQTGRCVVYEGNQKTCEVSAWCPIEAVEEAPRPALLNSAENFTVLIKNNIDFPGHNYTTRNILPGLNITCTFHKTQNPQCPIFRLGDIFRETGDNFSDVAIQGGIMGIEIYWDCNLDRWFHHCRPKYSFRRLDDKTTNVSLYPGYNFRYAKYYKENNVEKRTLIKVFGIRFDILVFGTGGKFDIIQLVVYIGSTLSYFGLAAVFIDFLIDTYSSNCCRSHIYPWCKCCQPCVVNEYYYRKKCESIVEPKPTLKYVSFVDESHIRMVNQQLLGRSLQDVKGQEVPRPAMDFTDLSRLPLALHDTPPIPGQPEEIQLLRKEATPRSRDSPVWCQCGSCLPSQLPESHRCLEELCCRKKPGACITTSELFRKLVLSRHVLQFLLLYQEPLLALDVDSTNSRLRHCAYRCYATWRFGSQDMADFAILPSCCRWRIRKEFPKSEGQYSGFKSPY
ASSAY METHOD TEXT: Antagonist activity at human P2X7 receptor expressed in HEK293 cells assessed as inhibition of BzATP-induced fluorescent ethidium accumulation
Assay type: functional, cell-based
CONDITION INFO: concentration not given here
Class Yes: inhibition at least 50%. Class No: inhibition below 50%.

Query string: Has `Cc1ccc(CN2C[C@H](COC(=O)c3cccc4cnccc34)NC(=O)c3nn(CCc4ccccc4)cc32)cc1` a recorded inhibition greater than or equal to 50%?
Result string: Yes

Query string: Has `Cn1cc(C(=O)OC[C@H]2CN(Cc3cccc(F)c3)c3cn(CCc4ccccc4)nc3C(=O)N2)c2ccccc21` a recorded inhibition greater than or equal to 50%?
Result string: No

Query string: Has `O=C1N[C@@H](Cc2ccccc2)CN(C(=O)C2CC2)c2cn(CCC3CCN(Cc4cccc5ncccc45)CC3)nc21` a recorded inhibition greater than or equal to 50%?
Result string: No

Query string: Has `Cn1cc(C(=O)OC[C@H]2CN(Cc3ccc(F)cc3)c3cn(CCc4ccccc4)nc3C(=O)N2)c2ccccc21` a recorded inhibition greater than or equal to 50%?
Result string: No

Query string: Has `CC(C)(C)OC(=O)N1CCC(CCn2cc3c(n2)C(=O)N[C@@H](Cc2ccccc2)CN3C(=O)C2CC2)CC1` a recorded inhibition greater than or equal to 50%?
Result string: Yes

Query string: Has `O=C1N[C@@H](COC(=O)c2cccc3cnccc23)CN(Cc2ccc(F)cc2)c2cn(CCc3ccccc3)nc21` a recorded inhibition greater than or equal to 50%?
Result string: Yes

Query string: Has `O=C1N[C@@H](COC(=O)c2cccc3cnccc23)CN(Cc2ccccc2)c2cn(CCc3ccccc3)nc21` a recorded inhibition greater than or equal to 50%?
Result string: Yes

Query string: Has `O=C(OC[C@H]1CNc2cn(CCc3ccccc3)nc2C(=O)N1)c1ccccc1` a recorded inhibition greater than or equal to 50%?
Result string: No

Query string: Has `O=C1N[C@@H](COC(=O)c2cccc3ccccc23)CN(Cc2ccccc2)c2cn(CCc3ccccc3)nc21` a recorded inhibition greater than or equal to 50%?
Result string: No

Query string: Has `Cn1cc(C(=O)OC[C@H]2CN(Cc3ccc(Br)cc3)c3cn(CCc4ccccc4)nc3C(=O)N2)c2ccccc21` a recorded inhibition greater than or equal to 50%?
Result string: Yes

Query string: Has `Cn1cc(CN2C[C@H](COC(=O)c3cn(C)c4ccccc34)NC(=O)c3nn(CCc4ccccc4)cc32)c2ccccc21` a recorded inhibition greater than or equal to 50%?
Result string: Yes

Query string: Has `O=C1N[C@@H](COC(=O)c2cccc3cnccc23)CN(Cc2ccc(Br)cc2)c2cn(CCc3ccccc3)nc21` a recorded inhibition greater than or equal to 50%?
Result string: No

Query string: Has Cn1cc(C(=O)OCC2CN(Cc3cccc4ccccc34)c3cn(CCc4ccccc4)nc3C(=O)N2)c2ccccc21 (single isomer, unassigned) a recorded inhibition greater than or equal to 50%?
Result string: No

Query string: Has `O=C1N[C@@H](Cc2ccccc2)CN(C(=O)C2CC2)c2cn(CCC3CCN(Cc4cccc5cnccc45)CC3)nc21` a recorded inhibition greater than or equal to 50%?
Result string: No

Query string: Has `Cn1cc(CN2C[C@H](COC(=O)c3cccc4cnccc34)NC(=O)c3nn(CCc4ccccc4)cc32)c2ccccc21` a recorded inhibition greater than or equal to 50%?
Result string: No

Query string: Has `Cc1cc(CN2C[C@H](COC(=O)c3cccc4cnccc34)NC(=O)c3nn(CCc4ccccc4)cc32)ccc1O` a recorded inhibition greater than or equal to 50%?
Result string: Yes

Query string: Has `Cc1cc(O)ccc1CN1C[C@H](COC(=O)c2cn(C)c3ccccc23)NC(=O)c2nn(CCc3ccccc3)cc21` a recorded inhibition greater than or equal to 50%?
Result string: Yes

Query string: Has `Cn1cc(C(=O)OC[C@H]2CNc3cn(CCc4ccccc4)nc3C(=O)N2)c2ccccc21` a recorded inhibition greater than or equal to 50%?
Result string: No

Query string: Has `CC(C)(C)OC(=O)N1CCC(CCn2cc3c(n2)C(=O)N[C@H](Cc2ccccc2)CN3C(=O)C2CC2)CC1` a recorded inhibition greater than or equal to 50%?
Result string: Yes

Query string: Has `Cc1ccc(CN2C[C@H](COC(=O)c3cn(C)c4ccccc34)NC(=O)c3nn(CCc4ccccc4)cc32)cc1` a recorded inhibition greater than or equal to 50%?
Result string: Yes

Query string: Has `O=C1N[C@@H](COC(=O)c2cccc3ccccc23)CNc2cn(CCc3ccccc3)nc21` a recorded inhibition greater than or equal to 50%?
Result string: No

Query string: Has `COc1ccc(CN2C[C@H](COC(=O)c3cn(C)c4ccccc34)NC(=O)c3nn(CCc4ccccc4)cc32)cc1` a recorded inhibition greater than or equal to 50%?
Result string: No

Query string: Has `Cn1cc(C(=O)OC[C@H]2CN(Cc3ccc(Cl)cc3)c3cn(CCc4ccccc4)nc3C(=O)N2)c2ccccc21` a recorded inhibition greater than or equal to 50%?
Result string: Yes

Query string: Has `O=C1N[C@@H](Cc2ccccc2)CN(C(=O)C2CC2)c2cn(CCC3CCNCC3)nc21` a recorded inhibition greater than or equal to 50%?
Result string: No

Query string: Has `Cc1cc(O)ccc1CN1C[C@@H](COC(=O)c2cn(C)c3ccccc23)NC(=O)c2nn(CCc3ccccc3)cc21` a recorded inhibition greater than or equal to 50%?
Result string: No

Query string: Has `O=C1N[C@@H](COC(=O)c2cccc3cnccc23)CNc2cn(CCc3ccccc3)nc21` a recorded inhibition greater than or equal to 50%?
Result string: Yes

Query string: Has `Cn1cc(CN2CCC(CCn3cc4c(n3)C(=O)N[C@@H](Cc3ccccc3)CN4C(=O)C3CC3)CC2)c2ccccc21` a recorded inhibition greater than or equal to 50%?
Result string: No

Query string: Has `Cc1cccc(CN2C[C@H](COC(=O)c3cn(C)c4ccccc34)NC(=O)c3nn(CCc4ccccc4)cc32)c1` a recorded inhibition greater than or equal to 50%?
Result string: No

Query string: Has `Cn1cc(C(=O)OC[C@H]2CN(Cc3ccccc3)c3cn(CCc4ccccc4)nc3C(=O)N2)c2ccccc21` a recorded inhibition greater than or equal to 50%?
Result string: Yes

Query string: Has `Cn1cc(C(=O)OC[C@H]2CN(Cc3ccc([N+](=O)[O-])cc3)c3cn(CCc4ccccc4)nc3C(=O)N2)c2ccccc21` a recorded inhibition greater than or equal to 50%?
Result string: Yes

Query string: Has `Cc1cccc(CN2C[C@H](COC(=O)c3cccc4cnccc34)NC(=O)c3nn(CCc4ccccc4)cc32)c1` a recorded inhibition greater than or equal to 50%?
Result string: No
